- testSystem: T1, ProQ (minimal ProQ, FinO domain with short N- and C-terminal extensions) (Neisseria meningitidis, UniProt Q9JY98 1-141)
- T1 sequence: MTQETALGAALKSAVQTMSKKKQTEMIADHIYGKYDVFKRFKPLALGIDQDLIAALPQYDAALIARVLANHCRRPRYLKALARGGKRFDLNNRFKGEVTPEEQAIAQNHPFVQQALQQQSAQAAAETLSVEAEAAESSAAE
- procedureSummary: EMSA; max bound 80%; 25 mM Tris pH 7.5, 150 mM NaCl, 5% glycerol, 1 mM MgCl2, 1 nM 32P-RNA, ProQ up to 50 nM, 30 min at room temperature; 6% native gel at 4 C
- appliedConditions: protein: recombinant; tags: N-terminal His6-TEV, cleaved; one extra N-terminal Ser remains; label: 5'-32P; hairpin, GAAA loop
measuredMetric: Kd

>>> print(df.to_string())
                                     binder  measuredmetric  result
0  GGGAUUUCAGUUUGAAAGCAAAGCCUGAAAAGGCUUUUUU (structured_RNA) [rpmG-loop-40]              Kd  1.2 nM
